# study-target: T1, huIL-17RA-FLAG-polyHis (human, UniProt Q96F46 33-320)
# T1 construct: also called IL-17RA-FLAG-pHis; wild-type IL-17RA
# assay-info: binning; IL-17RA held by bead mAb J
Entries and their normalized MFI

Study these solved cases before continuing.
binder | normalized MFI
AMH8/AML8 (antibody, IgG2, V domains shown, human mAb from IgG2 XenoMouse mice; also called AM-8; antibody C) VH: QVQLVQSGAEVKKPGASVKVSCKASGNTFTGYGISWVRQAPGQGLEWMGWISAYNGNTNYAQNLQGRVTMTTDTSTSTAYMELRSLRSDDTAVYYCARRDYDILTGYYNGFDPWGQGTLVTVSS VL: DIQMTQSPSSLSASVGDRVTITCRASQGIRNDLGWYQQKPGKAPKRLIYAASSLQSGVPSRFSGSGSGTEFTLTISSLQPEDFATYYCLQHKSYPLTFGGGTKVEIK | 3590
AMH21/AML21 (antibody, IgG2, V domains shown, human mAb from IgG2 XenoMouse mice; also called AM-21; antibody Q) VH: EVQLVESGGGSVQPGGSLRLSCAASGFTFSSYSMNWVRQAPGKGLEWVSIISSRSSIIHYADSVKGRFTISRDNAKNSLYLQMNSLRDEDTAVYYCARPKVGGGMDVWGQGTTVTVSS VL: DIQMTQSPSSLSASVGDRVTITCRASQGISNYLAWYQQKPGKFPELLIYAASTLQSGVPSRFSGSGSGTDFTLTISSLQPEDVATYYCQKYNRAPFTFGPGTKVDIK | 23

Request: Data request, read-out normalized MFI, for AMH10/AML10 (antibody, IgG2, V domains shown, human mAb from IgG2 XenoMouse mice; also called AM-10; antibody F) VH: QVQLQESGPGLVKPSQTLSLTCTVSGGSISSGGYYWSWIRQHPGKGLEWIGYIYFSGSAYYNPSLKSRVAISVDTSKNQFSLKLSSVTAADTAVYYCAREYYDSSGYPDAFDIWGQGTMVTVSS VL: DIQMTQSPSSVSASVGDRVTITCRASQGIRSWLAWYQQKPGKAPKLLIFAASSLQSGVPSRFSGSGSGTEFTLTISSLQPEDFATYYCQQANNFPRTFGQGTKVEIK
Result: 2120

Origin of values: patent US20120251547A1
